molecular target: Human recombinant monoamine oxidase MAO-A (Homo sapiens, UniProt P21397); construct: purchased Sigma Aldrich; assay: Monoamine oxidase assay (kynuramine fluorescence), MAO-A; format: biochemical; settings: Ki measured at Vmax/2
Sequence (P21397 whole entry): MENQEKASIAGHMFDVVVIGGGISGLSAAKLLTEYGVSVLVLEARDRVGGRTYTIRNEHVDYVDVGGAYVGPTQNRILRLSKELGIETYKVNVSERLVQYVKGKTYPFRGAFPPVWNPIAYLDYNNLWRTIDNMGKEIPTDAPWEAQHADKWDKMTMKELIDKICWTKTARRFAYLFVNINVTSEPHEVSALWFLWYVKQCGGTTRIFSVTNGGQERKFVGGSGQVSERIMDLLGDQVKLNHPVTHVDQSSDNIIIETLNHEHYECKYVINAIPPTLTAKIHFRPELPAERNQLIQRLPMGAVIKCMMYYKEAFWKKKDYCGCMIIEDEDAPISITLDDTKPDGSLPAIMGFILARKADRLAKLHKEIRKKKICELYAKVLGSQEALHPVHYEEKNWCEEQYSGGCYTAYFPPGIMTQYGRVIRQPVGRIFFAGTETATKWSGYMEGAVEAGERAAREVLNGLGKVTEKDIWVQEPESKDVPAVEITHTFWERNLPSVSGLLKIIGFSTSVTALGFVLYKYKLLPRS
result_type: Ki

Some compounds with recorded Ki:
compound | observed
NC(=O)CN[C@H]1CC1c1ccc(OCc2cc(F)cc(F)c2)cc1 (stereo partly shown) [2(B)] | 20 to 30 µM
c1ccc(C2C[C@@H]2NCCNC2CC2)cc1 (stereo partly shown) [Compound 2(A)] | ~10 µM
c1ccc(C2C[C@@H]2NCCN2CCNCC2)cc1 (stereo partly shown) [1(B)] | > 30 µM

// switching to the query compound
Query block: Field request: Ki | item: N[C@@H]1CCN(CCN[C@H]2CC2c2ccccc2)C1 (stereo partly shown) [1(A)]
Result block: > 40 µM
